Experiment: chemical genetic growth profiling, strain panel (AID 1159580);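 note: tested at 20 µM; growth read once vehicle control cultures reached saturation at 30 °C; 1 = growth at the plate median or of vehicle wells; lower values mean less growth of the strain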
Details: S. cerevisiae deletion strains, growth OD, locus YPR111W, strain DBF20, active compounds read low
The campaign covered roughly 5,500 compounds. About 2,000 (36%) were called active. About 18% were inconclusive and are not listed. This is one part of the list.
endpoint_label: normalized growth
Respond numerically, and do not add a unit to the figure.

Check the records and state normalized growth for Cc1cccc(NC(=S)NNC(=O)CSCc2cccc3ccccc23)c1
0.99

Answer with the recorded normalized growth of CC(=O)Nc1ccc(S(=O)(=O)Nc2ccccc2Oc2ccc(Cl)cc2Cl)cc1 only.
0.99

Kindly indicate its recorded normalized growth. Item: O=C(Nc1ccc(OC(F)(F)F)cc1)N1CCN(c2nc(-c3ccccc3)ns2)CC1
0.925

Look up and report measured normalized growth for this entry: Cc1onc(-c2c(F)cccc2Cl)c1C(=O)ON=C1C2CC3CC(C2)CC1C3
1.06

Please supply the value of reported normalized growth for the item CCc1ccn2cc(Nc3ccccc3Cl)nc2c1
0.97

Provide normalized growth value for the following molecule: Cc1c(C(=S)Nc2ccccc2)sc2ccccc12
0.99

Tell me measured normalized growth for S=c1[nH]nc(Nc2ccc(I)cc2)s1 please.
0.911

Identify normalized growth associated with the molecule ClC1=C(C=Nc2ccc(Cl)cc2)CSc2ccc(Cl)cc21
0.923

Name the recorded normalized growth of the item CC1(C)OC(=O)C(=Cc2cccn2-c2ccc(C(F)(F)F)cc2)C(=O)O1 in your answer.
0.964

Provide only the value of recorded normalized growth for O=C(Nc1ccc(OC(F)(F)F)cc1)OC1CN(C(c2ccccc2)c2ccccc2)C1
0.977

Could you please provide reported normalized growth for OC(CN1CCN(c2nc3ccc(Cl)cc3s2)CC1)Cn1ccc2ccccc21 (configuration not stated) ? Thanks!
0.967

All figures here come from PubChem BioAssay AID1159580.
